- Test system: super sensitive Gram-negative Escherichia coli (E. coli) BAS849
- assay_info: Antibacterial activity, microbroth dilution MIC, E. coli BAS849
- Type: cell-based
- experimental_parameters: Escherichia coli; E. coli BAS849, microbroth dilution; read-out: MIC, BAS849
readout_name: MIC

Incoming: Supply MIC value. Item: CCc1cc(C(=O)O)c(=O)[nH]c1-c1ccc(N2C[C@H]3CCC[C@@H](N(C)C)[C@H]3C2)cc1.Cl
Outgoing: 1 to 3.5 µg/mL

Incoming: Return the recorded MIC value; entry: CCc1cc(C(=O)O)c(=O)[nH]c1-c1ccc(-n2ccnc2)cc1
Outgoing: 12.5 to 150 µg/mL

Incoming: Check the records and state MIC for CCc1cc(C(=O)O)c(=O)[nH]c1-c1ccc(N2CC[C@H](N(C)C)C2)cc1.Cl
Outgoing: < 1 µg/mL

Incoming: Read off the recorded MIC for CCc1cc(C(=O)O)c(=O)[nH]c1-c1ccc(N2CCC(O)C2)cc1 (stereo not drawn)
Outgoing: < 1 µg/mL

Incoming: Please list MIC recorded for the compound CCc1c(-c2ccc(N3C[C@H]4C[C@@H](N(Cc5ccccc5)Cc5ccccc5)C[C@H]4C3)cc2)[nH]c(=O)c(C(=O)O)c1O
Outgoing: 12.5 to 150 µg/mL

Incoming: Specify MIC for CCc1c(-c2ccc(N(C)C)cc2)[nH]c(=O)c(C(=O)O)c1OC and stop.
Outgoing: 3.5 to 12.5 µg/mL

Incoming: State, in one line, measured MIC of CCc1cc(C(=O)O)c(=O)[nH]c1-c1ccc(Br)cc1
Outgoing: 3.5 to 12.5 µg/mL

Incoming: Identify MIC associated with the compound CCc1c(-c2ccc(N3CCCCC3)cc2)[nH]c(=O)c(C(=O)O)c1O
Outgoing: < 1 µg/mL

Incoming: Give the measured MIC for CCc1c(-c2ccc(F)cc2)[nH]c(=O)c(C(=O)O)c1O
Outgoing: 3.5 to 12.5 µg/mL

Incoming: Give the reported value of MIC for this record: CCc1cc(C(=O)O)c(=O)[nH]c1-c1ccc(N2CCC[C@H]2COC)cc1
Outgoing: < 1 µg/mL

Incoming: Look up and state reported MIC for CCc1cc(C(=O)O)c(=O)[nH]c1-c1ccc(N2CCOCC2)c(F)c1
Outgoing: 3.5 to 12.5 µg/mL

Incoming: Supply recorded MIC for CCc1c(-c2ccc(N3CCCCC3)c(C)c2)[nH]c(=O)c(C(=O)O)c1O here.
Outgoing: 3.5 to 12.5 µg/mL

Incoming: Complete the entry with MIC for CN(C)c1ccc(-c2[nH]c(=O)c(C(=O)O)cc2C(=O)O)cc1
Outgoing: 12.5 to 150 µg/mL

Incoming: Tell me MIC reported for CCc1cc(C(=O)O)c(=O)[nH]c1-c1ccc(N2CCC(CN3CCCC3)C2)cc1 (stereo not drawn)
Outgoing: < 1 µg/mL

Incoming: Quick one: give measured MIC for CCc1cc(C(=O)O)c(=O)[nH]c1-c1ccc(N(C)C)cc1
Outgoing: < 1 µg/mL

Incoming: Supply recorded MIC for CC(C)c1c(-c2ccc(N(C)C)cc2)[nH]c(=O)c(C(=O)O)c1O here.
Outgoing: < 1 µg/mL

Incoming: Name the recorded MIC of the compound listed here: CCc1c(-c2ccc(N3CCCC3)cc2C)[nH]c(=O)c(C(=O)O)c1O
Outgoing: 3.5 to 12.5 µg/mL

Incoming: Input CCc1c(-c2ccc(N3CCC4(CCNC4)C3)cc2)[nH]c(=O)c(C(=O)O)c1O (stereo not drawn) , output reported MIC.
Outgoing: 1 to 3.5 µg/mL
